target: 5-hydroxytryptamine receptor 1D (Homo sapiens, UniProt P28221); experiment: In vitro binding affinity towards 5-HT1D alpha receptor by using [3H]5-HT as radioligand
Sequence (P28221 whole entry): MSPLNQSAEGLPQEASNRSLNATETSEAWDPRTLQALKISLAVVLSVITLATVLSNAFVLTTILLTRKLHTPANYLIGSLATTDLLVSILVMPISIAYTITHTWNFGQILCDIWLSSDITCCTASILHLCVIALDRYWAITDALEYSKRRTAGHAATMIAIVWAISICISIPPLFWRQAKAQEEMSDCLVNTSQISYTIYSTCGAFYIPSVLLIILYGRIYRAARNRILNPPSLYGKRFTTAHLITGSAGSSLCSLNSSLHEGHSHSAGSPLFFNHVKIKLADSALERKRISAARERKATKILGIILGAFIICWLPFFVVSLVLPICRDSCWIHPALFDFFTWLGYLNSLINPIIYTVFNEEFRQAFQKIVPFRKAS
OUTCOME MEASURE: Ki (µM)

CHEMICAL SMILES	VALUE UNITS	READOUT NUMBER
CCCN[C@@H]1CCc2ccc(OS(=O)(=O)C(F)(F)F)cc2C1.Cl	µM	0.125

###

assay: Plasma half life was determined in rats; assay type: ADME, organism-based; settings: rat
In this section, each of the compounds is paired with its reported half-life.

COMPOUND	half-life (h)
CCCN(CCC)[C@@H]1CCc2cccc(O)c2C1	1.2
CCCN(CCC)C1CCc2cccc(OS(=O)(=O)C(F)(F)F)c2C1 (racemic)	1.5

###

pKi: −log10 of the molar value.
Values of pKi reported for D(2) dopamine receptor (Homo sapiens) appear below.

COMPOUND	pKi
CCCN(CCC)C1CCc2cccc(OS(=O)(=O)C(F)(F)F)c2C1 (racemic)	7.21
CCCNC1CCc2cccc(OS(=O)(=O)C(F)(F)F)c2C1 (racemic)	6.97

###

molecular target: 5-hydroxytryptamine receptor 1D (Homo sapiens, UniProt P28221); test: In vitro binding affinity towards 5-hydroxytryptamine 1D receptor alpha by using [3H]5-HT as radioligand
pKi: −log10 of the molar value.
In this section, each of the compounds is paired with its reported pKi.

COMPOUND	pKi
CCCN(CCC)C1CCc2cccc(OS(=O)(=O)C(F)(F)F)c2C1 (racemic)	7.92
CCCNC1CCc2cccc(OS(=O)(=O)C(F)(F)F)c2C1 (racemic)	7.82

###

pKi: −log10 of the molar value.
Values of pKi reported for D(3) dopamine receptor (Homo sapiens, UniProt P35462) appear below.
OUTCOME MEASURE: pKi

COMPOUND	READOUT NUMBER
CCCNC1CCc2cccc(OS(=O)(=O)C(F)(F)F)c2C1 (racemic)	6.16
CCCN(CCC)C1CCc2cccc(OS(=O)(=O)C(F)(F)F)c2C1 (racemic)	6.56
CCCN[C@@H]1CCc2ccc(OS(=O)(=O)C(F)(F)F)cc2C1.Cl	6.44

###

assay: Plasma clearance was determined for the compound in rats; assay type: ADME, organism-based; conditions: rat
OUTCOME MEASURE: clearance

COMPOUND	RESULT
CCCN(CCC)C1CCc2cccc(OS(=O)(=O)C(F)(F)F)c2C1 (racemic)	57 mL/min/kg

###

molecular target: 5-hydroxytryptamine receptor 1D (Homo sapiens, UniProt P28221); assay: In vitro binding affinity towards 5-hydroxytryptamine 1D receptor alpha by using [3H]-5-HT as radioligand
pKi: −log10 of the molar value.
In this section, each of the molecules is paired with its reported pKi.

MOLECULE	pKi
CCCN(CCC)C1CCc2cccc(OS(=O)(=O)C(F)(F)F)c2C1 (racemic)	6.90
CCCN[C@@H]1CCc2ccc(OS(=O)(=O)C(F)(F)F)cc2C1.Cl	6.47
